Listing of entries alongside the reported Blackgrass plant response rating.
# Tested on: blackgrass (Alopecurus myosuroides)
# experiment notes: Test A postemergence, blackgrass
# Type: in vivo
# setup conditions: Postemergence, 500 g ai/ha; visual injury vs untreated controls after approx. 10 days; 0 to 100 scale (0 no effect, 100 complete control)
measure name: Blackgrass plant response rating

[[record]]
given_smiles = "COc1cnn(-c2cc(NS(=O)(=O)C(F)(F)F)c(C)cc2C)c(=O)c1"
measure_name = "Blackgrass plant response rating"
observed = 0

[[record]]
given_smiles = "Cc1cc(C)c(C(=O)N(C)CC2CC2)cc1NS(=O)(=O)C(F)(F)F"
measure_name = "Blackgrass plant response rating"
observed = 30

[[record]]
given_smiles = "Cc1cc(F)c(C(=O)N2CCCCC2)cc1N(S(=O)(=O)C(F)(F)F)S(=O)(=O)C(F)(F)F"
measure_name = "Blackgrass plant response rating"
observed = 0

[[record]]
given_smiles = "Cc1cc(C)c(C2=NOC3(CCOCC3)C2)cc1NS(=O)(=O)C(F)(F)F"
measure_name = "Blackgrass plant response rating"
observed = 30

[[record]]
given_smiles = "Cc1cc(C)c(-c2ccnn(CC(C)C)c2=O)cc1NS(=O)(=O)C(F)(F)F"
measure_name = "Blackgrass plant response rating"
observed = 0

[[record]]
given_smiles = "Cc1cc(Cl)c(C2=NOC3(CCCC3)C2)cc1NS(=O)(=O)C(F)(F)F"
measure_name = "Blackgrass plant response rating"
observed = 10

[[record]]
given_smiles = "Cc1cc(C)c(C(=O)N2CCC(CC(F)(F)F)CC2)cc1NS(=O)(=O)C(F)(F)F"
measure_name = "Blackgrass plant response rating"
observed = 0


----------
Listing of entries alongside the reported Plant response rating, Goosegrass.
# Test system: goosegrass (Eleusine indica)
# experiment notes: Test A1 postemergence, goosegrass
# Type: in vivo
# setup conditions: Postemergence, 31 g ai/ha; 0 to 100 scale (0 no effect, 100 complete control); 10 days
measure name: Plant response rating, Goosegrass

[[record]]
molecule = "COc1cc(C)c(NS(=O)(=O)C(F)(F)F)cc1C1=NOC2CCCC12 (stereo not shown) [Compound 312]"
measure_name = "Plant response rating, Goosegrass"
observed = 0

[[record]]
molecule = "CCC1ON=C(c2cc(NS(=O)(=O)C(F)(F)F)c(C)cc2C)C1CC (stereo not shown) [Compound 343]"
measure_name = "Plant response rating, Goosegrass"
observed = 40

[[record]]
molecule = "Cc1cc(C2CC2)c(C2=NOC3CCCC23)cc1NS(=O)(=O)C(F)(F)F (stereo not shown) [Compound 307]"
measure_name = "Plant response rating, Goosegrass"
observed = 30

[[record]]
molecule = "Cc1c(NS(=O)(=O)C(F)(F)F)cc(C2=NOC3CCCC23)c(C)c1C (stereo not shown) [Compound 335]"
measure_name = "Plant response rating, Goosegrass"
observed = 0

[[record]]
molecule = "CCc1cc(C)c(C2=NOC3(CCCC3)C2)cc1NS(=O)(=O)C(F)(F)F [Compound 311]"
measure_name = "Plant response rating, Goosegrass"
observed = 0

[[record]]
molecule = "Cc1c(NS(=O)(=O)C(F)(F)F)cc(C(=O)N2CCCCC2)c(C)c1C [Compound 326]"
measure_name = "Plant response rating, Goosegrass"
observed = 0

[[record]]
molecule = "CCCCOC1CC(c2cc(NS(=O)(=O)C(F)(F)F)c(C)cc2C)=NO1 (stereo not shown) [Compound 323]"
measure_name = "Plant response rating, Goosegrass"
observed = 0

